Where do the numbers come from? From the supplement of paper PMC10567573.

B1: ZNF649 (parent)
chain: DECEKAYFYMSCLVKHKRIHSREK

variants of: B1; test: protein stability index of a GFP-peptide fusion (GPS, HEK-293T) (PSI 1-6); higher = more stable; details: c terminus: a fixed tail appended;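 further: lentivirally expressed fusions sorted by FACS into six bins by GFP to DsRed ratio, PSI derived from sequencing read proportions per bin multiplied by bin number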
protein stability index values, listed per item
Form: value (number only, do not type unit).

Some solved entries appear below for comparison.
{"Variant Description": "M10C", "Quantitative Result": 2.75}
{"Variant Description": "E4L", "Quantitative Result": 2.18}
{"Variant Description": "H20G", "Quantitative Result": 2.55}
{"Variant Description": "K5I", "Quantitative Result": 1.79}
{"Variant Description": "K15Q", "Quantitative Result": 2.3}

Could you now consider this next variant?
Lookup result for K17V ; measured protein stability index: 2.19
